Examples of molecules with documented Ratio IC50 follow.
test: Selectivity ratio, ratio of IC50 for CDK2/Cyclin E to IC50 for CDK5/p25
measured-metric: Ratio IC50

[[record]]
smiles_structure = "CC(=O)Nn1c(Cc2c(NC(=O)CCl)sc3c2CCCC3)nnc1SCC(=O)NN"
prefix_operator = "="
test_result = 98.1

[[record]]
smiles_structure = "NNC(=O)CSc1nnc(Cc2c(NC(=O)CCl)sc3c2CCCC3)n1NC(=O)c1ccc(Cl)cc1"
prefix_operator = "="
test_result = 20.5

[[record]]
smiles_structure = "O=C(CSc1nnc(Cc2c(NC(=O)CCl)sc3c2CCCC3)n1NC(=O)c1ccc(Cl)cc1)N/N=C/c1ccccc1"
prefix_operator = "="
test_result = 1.4

[[record]]
smiles_structure = "CC(=O)Nn1c(Cc2c(NC(=O)CCl)sc3c2CCCC3)nnc1SCC#N"
prefix_operator = "="
test_result = 21.6

[[record]]
smiles_structure = "NNC(=O)CSc1nnc(Cc2c(NC(=O)CCl)sc3c2CCCC3)n1NC(=O)c1ccccc1"
prefix_operator = "="
test_result = 13.2

[[record]]
smiles_structure = "O=C(CSc1nnc(Cc2c(NC(=O)CCl)sc3c2CCCC3)n1NC(=O)c1ccccc1)N/N=C/c1ccccc1"
prefix_operator = ">"
test_result = 17.5

[[record]]
smiles_structure = "CC(=O)Nc1sc2c(c1Cc1nnc(SCC(=O)NN)n1NC(=O)c1ccc(Cl)cc1)CCCC2"
prefix_operator = "="
test_result = 9.2

[[record]]
smiles_structure = "N#CCSc1nnc(Cc2c(NC(=O)CCl)sc3c2CCCC3)n1NC(=O)c1ccc(Cl)cc1"
prefix_operator = "="
test_result = 19.6

[[record]]
smiles_structure = "Nn1c(S)nnc1Cc1c(NC(=O)CCl)sc2c1CCCC2"
prefix_operator = "="
test_result = 1.2

